Origin of measurements: ChEMBL document CHEMBL4118234

assay: Solubility of the compound; type: physicochemical

{"columns": ["entry smiles", "solubility"],
 "data": [
  ["C=CC(=O)N1CC[C@@H](Nc2nc(Nc3ccccc3)nc3cnc(Nc4ccc(N5CCN(C)CC5)cn4)cc23)C1", "Soluble"],
  ["C=CC(=O)Nc1cccc(Nc2cc3c(N4CCCC4)nc(OCc4ccccc4)nc3cn2)n1", "Insoluble"],
  ["C=CC(=O)Nc1cccc(Nc2cc3c(N4CCCC4)nc(OCC4CCOCC4)nc3cn2)n1", "Insoluble"],
  ["C=CC(=O)N1CC[C@H](Nc2nc(Nc3ccccc3)nc3cnc(Nc4ccc(N5CCN(C)CC5)cn4)cc23)C1", "Soluble"]
]}
